- Read-out: ATP-citrate lyase (ACLY), ACLY (gene 47)
- test-description: LTEA_HepaRG_ACLY: Life Technologies and Expression Analysis (LTEA) Assay for ATP-citrate lyase (ACLY) using HepaRG (AID 2283466)
- particulars: mRNA level, 48 h; actives raise or lower the signal
Active and inactive are the calls of the source. Rule for the calls: active = hit-call score of the fitted dose curve at least 0.9, where 1 is the maximum; inactive = score below 0.9.
Classes used: True (active), False (inactive)

| molecule-smiles | label-value |
| --- | --- |
| C=C(C)C(=O)OCCC(F)(F)C(F)(F)C(F)(F)C(F)(F)C(F)(F)C(F)(F)F | False |
| CCCCCCCCOC(=O)CCCCCCCCC(=O)OCCCCCCCC | False |
| CC[C@H](C)[C@@H](C(=O)O)n1sc2ccccc2c1=O | False |
| CN(C)C=O | False |
| NC(=O)N(O)[C@@H]1C=C[C@H](Oc2cccc(Oc3ccc(F)cc3)c2)C1 | True |
| CCCCCCCC(=O)O | True |
| C#C[C@]1(O)CC[C@H]2[C@@H]3CCC4=CC(=O)CC[C@@H]4[C@H]3CC[C@@]21C | False |
| C[C@@H]1C[C@H]2[C@@H]3CCC4=CC(=O)C=C[C@]4(C)[C@@]3(F)[C@@H](O)C[C@]2(C)[C@@]1(O)C(=O)COP(=O)(O)O | False |

====

- test-description: ACEA_ER_AUC_viability: ACEA Biosciences xCELLigence Real-Time Cell Analysis on Estrogen Receptor Agonism for Viability (AID 2283782);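 note: continuous compound exposure with impedance area under curve over 80 h; hit means loss of impedance signal meaning reduced cell growth or viability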
Results filed as inconclusive are left out. The source made the active and inactive calls. The calls were made as follows: active = hit-call score of the fitted dose curve at least 0.9, where 1 is the maximum; inconclusive = response in the unintended direction; inactive = score below 0.9.
property-label: AC50

| molecule | experimental-result |
| --- | --- |
| Oc1cc2ccccc2c2ccccc12 | 4.66 µM (active) |
| C[C@@H]1C[C@H]2[C@@H]3CCC4=CC(=O)C=C[C@]4(C)[C@@]3(F)[C@@H](O)C[C@]2(C)[C@@]1(O)C(=O)COP(=O)(O)O | inactive |
| FC(F)(I)C(F)(F)C(F)(F)C(F)(F)C(F)(F)C(F)(F)I | 45 µM (active) |
| CC(O)C(=O)O (configuration not stated) | inactive |
| NC(=O)N(O)[C@@H]1C=C[C@H](Oc2cccc(Oc3ccc(F)cc3)c2)C1 | 92.6 µM (active) |
| OCCC(F)(F)C(F)(F)C(F)(F)C(F)(F)C(F)(F)C(F)(F)C(F)(F)C(F)(F)F | inactive |
| O=C(O)Cc1cc(I)c(Oc2cc(I)c(O)c(I)c2)c(I)c1 | inactive |
| c1ccc2c(c1)ccc1ccccc12 | inactive |
| O=C(/C=C/c1ccc(O)cc1)CC(=O)/C=C/c1ccc(O)cc1 | inactive |
| CCC(C)(C)C1CCC(O)CC1 (configuration not stated) | inactive |
| c1ccc2c(c1)Cc1ccccc1-2 | inactive |
| CC(O)CO (configuration not stated) | inactive |

====

- Read-out: Interleukin 6 Receptor (IL6R), IL6R (gene 3570)
- test-description: LTEA_HepaRG_IL6R: Life Technologies and Expression Analysis (LTEA) Assay for Interleukin 6 Receptor (IL6R) using HepaRG (AID 2283510)
- particulars: mRNA level, 48 h; actives raise or lower the signal
- Description: LTEA_HepaRG is a cell based, multiplexed-readout assay that uses HepaRG, a human liver cell line, with measurements taken at 48 hours after chemical dosing on a 96-well plate.LTEA_HepaRG_IL6R is one of 102 assay component(s) measured in the LTEA HepaRG cell culture assay. It is a marker of Inflammation.Data from the assay component LTEA_HepaRG_IL6R was analyzed into 1 endpoint. […]
The source made the active and inactive calls. The calls were made as follows: active = hit-call score of the fitted dose curve at least 0.9, where 1 is the maximum; inactive = score below 0.9.
Classes used: active, inactive

| molecule | label-value |
| --- | --- |
| CC(C)CCCCCCOC(=O)CCCCC(=O)OCCCCCCC(C)C | inactive |
| CN1CCC[C@H]1c1cccnc1 | inactive |
| O=c1c(-c2ccc(O)cc2)coc2cc(O)ccc12 | inactive |
| CCCCOCCO | inactive |
| N#C[C@@H]1CC(F)(F)CN1C(=O)CNC1CC2CCC(C1)N2c1ncccn1 (stereo not given in full) | inactive |
| CCCOc1sc(C(=O)N2CCC(c3cc(CN)ccc3F)CC2)c(C)c1Br | inactive |
| c1ccc2c(c1)Cc1ccccc1-2 | inactive |
| ClC1=C(Cl)C(Cl)(Cl)C(Cl)=C1Cl | inactive |
| OCCC(F)(F)C(F)(F)C(F)(F)C(F)(F)C(F)(F)C(F)(F)C(F)(F)C(F)(F)F | inactive |
| CCCCC(CC)COC(=O)CCCCC(=O)OCC(CC)CCCC (stereo not given) | inactive |
| NC(=O)N1C(=O)C(C(=O)c2cc(Cl)cs2)c2cc(F)c(Cl)cc21 (stereo not given) | active |
| NC(=O)N(O)[C@@H]1C=C[C@H](Oc2cccc(Oc3ccc(F)cc3)c2)C1 | inactive |
| C#C[C@]1(O)CC[C@H]2[C@@H]3CCC4=CC(=O)CC[C@@H]4[C@H]3CC[C@@]21C | inactive |
| Cc1cc(C)c(O)c(C)c1 | inactive |
| CN1CCN(c2ccccc2/C=C2\SCCN(c3ccc(Cl)c(Cl)c3)C2=O)CC1 | active |
| O=C(O)c1ccccc1C(c1ccc(O)cc1)c1ccc(O)cc1 | inactive |
| CC(C)(C)c1cc(C(C)(C)C)c(O)c(C(C)(C)C)c1 | inactive |
| CC(C)(C)CC(C)(C)c1ccc(O)c(-n2nc3ccccc3n2)c1 | inactive |
| COc1ccc([N+](=O)[O-])cc1N | inactive |
| COCC(C)OCC(C)O (stereo not given) | inactive |
| Oc1cc2ccccc2c2ccccc12 | inactive |
| CCCCCCC(=O)O | inactive |
| CC[C@H](C)[C@@H](C(=O)O)n1sc2ccccc2c1=O | inactive |
| CCC(=C(c1ccc(O)cc1)c1ccc(OCCN(C)C)cc1)c1ccccc1 | active |
| CC#C[C@]1(O)CC[C@H]2[C@@H]3CCC4=CC(=O)CCC4=C3[C@@H](c3ccc(N(C)C)cc3)C[C@@]21C | active |

====

- Read-out: Plasminogen activator inhibitor-1 (PAI1), SERPINE1 (gene 5054)
- test-description: BSK_BE3C_PAI1: BioMAP Diversity Plus: BE3C Assay for Plasminogen activator inhibitor-1 (PAI1) Biomarker Activity (AID 2283037)
- particulars: primary human bronchial epithelial cells; actives raise or lower the signal
Calls of active or inactive are those of the source. Rule for the calls: active = hit-call score of the fitted dose curve at least 0.9, where 1 is the maximum; inactive = score below 0.9.
Classes used: 1 (yes) (active), 0 (no) (inactive)

| molecule | label-value |
| --- | --- |
| CCC(=C(c1ccc(O)cc1)c1ccc(OCCN(C)C)cc1)c1ccccc1 | 1 (yes) |
| CC(=O)NC1(c2cccc(F)c2)CCN(CC[C@@]2(c3ccc(Cl)c(Cl)c3)CN(c3ccccc3)C(=O)CO2)CC1 | 1 (yes) |
| N#C[C@@H]1CC(F)(F)CN1C(=O)CNC1CC2CCC(C1)N2c1ncccn1 (some centres not stated) | 0 (no) |
| Cc1cc(C)c(O)c(C)c1 | 0 (no) |
| CC(=O)CC(C)(C)O | 0 (no) |
| O=[N+]([O-])c1ccc(O)cc1 | 0 (no) |
| CC(O)CO (configuration not stated) | 0 (no) |

====

- test-description: CPHEA_Stoker_NIS_Cytotoxicity: Cytotoxicity Assessment for CPHEA's Radioactive Iodide Uptake (RAIU) Assay for Sodium/Iodide Symporter (NIS) Inhibition, Stoker and Laws Labs (AID 2283897)
The source made the active and inactive calls. How the source made its calls: active means hit-call score of the fitted dose curve at least 0.9, where 1 is the maximum; inconclusive means response in the unintended direction; inactive means score below 0.9.
Classes used: active, inactive

| compound | label-value |
| --- | --- |
| CC[C@H](c1ccc(O)cc1)[C@@H](CC)c1ccc(O)cc1 | active |
| CC[C@H](C)[C@@H](C(=O)O)n1sc2ccccc2c1=O | inactive |
| CCCCCCCCCCCCc1ccccc1S(=O)(=O)O | inactive |
| Oc1cc2ccccc2c2ccccc12 | inactive |
| c1ccc2cc3c(ccc4ccccc43)cc2c1 | inactive |
| O=C1OC2(c3ccccc31)c1cc(Br)c(O)c(Br)c1Oc1c2cc(Br)c(O)c1Br | inactive |
| CCC(=C(c1ccc(O)cc1)c1ccc(OCCN(C)C)cc1)c1ccccc1 | inactive |
| NC(=O)N1C(=O)C(C(=O)c2cc(Cl)cs2)c2cc(F)c(Cl)cc21 (centres undefined) | inactive |
| CN1CCN(c2ccccc2/C=C2\SCCN(c3ccc(Cl)c(Cl)c3)C2=O)CC1 | inactive |
| Cc1oc(-c2ccccc2)nc1CCOc1ccc(C[C@H](Nc2ccccc2C(=O)c2ccccc2)C(=O)O)cc1 | active |
| O=C(O)Cc1cc(I)c(Oc2cc(I)c(O)c(I)c2)c(I)c1 | inactive |
| CC1=C(/C=C/C(C)=C/C=C/C(C)=C/C(=O)O)C(C)(C)CCC1 | inactive |
| O=C(O)c1ccccc1C(c1ccc(O)cc1)c1ccc(O)cc1 | inactive |
| c1ccc2c(c1)ccc1ccccc12 | inactive |
